- assayed_target: Muscarinic acetylcholine receptor (Rattus norvegicus) (UniProt P08482+P08483+P08485+P08911+P10980)
- test_description: Displacement of [3H]N-methylscopolamine ([3H]NMS) binding at muscarinic acetylcholine receptor in rat cerebral cortical membranes
- Assay type: cell membranes
- Design: concentration or dose not given beside the values
- assay_conditions: Membrane
Decide using Displacement: a value greater than or equal to 40% is criterion met, a smaller one is criterion not met.

# molecule, category_label
rows = [
    ("CC(=O)N(C)CC#CCN1CCC[C@@H]1CO.O=C(O)C(=O)O", "criterion met"),
    ("CC(=O)N(C)CC#CCN1CCN(C(C)=O)CC1.O=C(O)C(=O)O", "criterion met"),
    ("CC(=O)N(C)CC#CCN1CCCC(O)C1 (stereo unspecified)", "criterion not met"),
    ("CC(=O)N(C)CC#CCN1CCNCC1.O=C(O)C(=O)O", "criterion met"),
    ("CC(=O)N(C)CC#CCN1CCC(OS(C)(=O)=O)C1.O=C(O)C(=O)O (stereo unspecified)", "criterion not met"),
    ("COC[C@@H]1CCCN1CC#CCN(C)C(C)=O.O=C(O)C(=O)O", "criterion met"),
    ("CC(=O)N(C)CC#CCN1CCC(OS(=O)(=O)c2ccc(C)cc2)C1.O=C(O)C(=O)O (stereo unspecified)", "criterion met"),
    ("CC(=O)N(C)CC#CCN1CCC(CO)CC1.O=C(O)C(=O)O", "criterion not met"),
    ("CC(=O)N(C)CC#CCN1CCC1.O=C(O)C(=O)O", "criterion not met"),
    ("CC(=O)N(C)CC#CCN1CCC[C@H]1CO.O=C(O)C(=O)O", "criterion not met"),
]
